Provide the recorded IC50 BAFF (Δ Parental vTD) for the entries that follow.
target: recombinant human BAFF (human, UniProt Q9Y275 134-285); assay: cell-based or functional assay
Give the value, in units of ratio, as a plain number.

Query: Determine its reported IC50 BAFF (Δ Parental vTD): Fc (G4S)2 BCMA (357) (Fc fusion) EPKSSDKTHTCPPCPAPEAEGAPSVFLFPPKPKDTLMISRTPEVTCVVVDVSHEDPEVKFNWYVDGVEVHNAKTKPREEQYNSTYRVVSVLTVLHQDWLNGKEYKCKVSNKALPAPIEKTISKAKGQPREPQVYTLPPSRDELTKNQVSLTCLVKGFYPSDIAVEWESNGQPENNYKTTPPVLDSDGSFFLYSKLTVDKSRWQQGNVFSCSVMHEALHNHYTQKSLSLSPGGGGGSGGGGSLQMAGQCSQNEYFDSLLYACIPCQLRCSSNTPPLTCQRYCNASVTNSVKGTNA
Response: 1

Query: Give a short answer stating reported IC50 BAFF (Δ Parental vTD) for TACI 528 (EAAAK)6 CTLA 4 668 (other) SLSCRKEQGKFYDHLLRDCISCASICGQHPKQCAYFCENKLRSEAAAKEAAAKEAAAKEAAAKEAAAKEAAAKKAMHVAQPAVVLASSRGIASFVCEYASPGKATEVRVTVLRQADSQVTEVCAATYMMGNELTFLDDSICTGTSSGNQVNLTIQGLRAMDTGLYICKVELMYPPPYYLGIGNGTQIYVIDPEPSPDSDQDYKDDDDKHHHHHH .
Response: 2

Query: Assign IC50 BAFF (Δ Parental vTD) to the following record: TACI 516 (G4S)3 CTLA 4 668 (other) VAMRSCPEEQYWDPLLGTCMSCKTICNHQSQRTCAAFCRSLSCRKEQGKFYDHLLRDCISCASICGQHPKQCAYFCENKLRSGGGGSGGGGSGGGGSKAMHVAQPAVVLASSRGIASFVCEYASPGKATEVRVTVLRQADSQVTEVCAATYMMGNELTFLDDSICTGTSSGNQVNLTIQGLRAMDTGLYICKVELMYPPPYYLGIGNGTQIYVIDPEPSPDSDQDYKDDDDKHHHHHH
Response: 3.4

Query: Name the recorded IC50 BAFF (Δ Parental vTD) of the binder listed here: TACI 516 (EAAAK)6 CTLA 4 668 (other) VAMRSCPEEQYWDPLLGTCMSCKTICNHQSQRTCAAFCRSLSCRKEQGKFYDHLLRDCISCASICGQHPKQCAYFCENKLRSEAAAKEAAAKEAAAKEAAAKEAAAKEAAAKKAMHVAQPAVVLASSRGIASFVCEYASPGKATEVRVTVLRQADSQVTEVCAATYMMGNELTFLDDSICTGTSSGNQVNLTIQGLRAMDTGLYICKVELMYPPPYYLGIGNGTQIYVIDPEPSPDSDQDYKDDDDKHHHHHH
Response: 1.3

Query: Note down IC50 BAFF (Δ Parental vTD) recorded for TACI 528 (G4S)3 CTLA 4 668 (other) SLSCRKEQGKFYDHLLRDCISCASICGQHPKQCAYFCENKLRSGGGGSGGGGSGGGGSKAMHVAQPAVVLASSRGIASFVCEYASPGKATEVRVTVLRQADSQVTEVCAATYMMGNELTFLDDSICTGTSSGNQVNLTIQGLRAMDTGLYICKVELMYPPPYYLGIGNGTQIYVIDPEPSPDSDQDYKDDDDKHHHHHH
Response: 3.3

Query: Please list IC50 BAFF (Δ Parental vTD) recorded for the binder Fc (G4S)2 BCMA (356) (Fc fusion) EPKSSDKTHTCPPCPAPEAEGAPSVFLFPPKPKDTLMISRTPEVTCVVVDVSHEDPEVKFNWYVDGVEVHNAKTKPREEQYNSTYRVVSVLTVLHQDWLNGKEYKCKVSNKALPAPIEKTISKAKGQPREPQVYTLPPSRDELTKNQVSLTCLVKGFYPSDIAVEWESNGQPENNYKTTPPVLDSDGSFFLYSKLTVDKSRWQQGNVFSCSVMHEALHNHYTQKSLSLSPGGGGGSGGGGSLQMAGQCSQNEYFDSLLHACIPCQLRCSSNTPPLTCQRYCNASVTNSVKGTNA
Response: 1
